assay: Solubility of the compound in water incubated for 15 mins under shaking conditions by UV spectrophotometry; type: physicochemical
Would you mind labelling by solubility at 0.25 h? At or over 200 µM is TRUE, under is FALSE.

Worked examples, 5 compounds total:
>  <structure.smiles.string>
CC(=O)N[C@@H]1[C@@H](O)[C@@H](O)[C@@H](CO)O[C@H]1n1cc(CNC(=O)C[C@H](O)C[C@H](O)CCn2c(-c3ccc(F)cc3)c(-c3ccccc3)c(C(=O)Nc3ccccc3)c2C(C)C)nn1

>  <label.value>
TRUE

$$$$
>  <structure.smiles.string>
CC(=O)N[C@H]1[C@H](OCCn2cc(COC(=O)C[C@H]3C[C@@H](CCn4c(-c5ccc(F)cc5)c(-c5ccccc5)c(C(=O)Nc5ccccc5)c4C(C)C)OC(C)(C)O3)nn2)O[C@H](CO)[C@H](O)[C@@H]1O

>  <label.value>
FALSE

$$$$
>  <structure.smiles.string>
CC(=O)N[C@H]1[C@H](OCCn2cc(COC(=O)C[C@H](O)C[C@H](O)CCn3c(-c4ccc(F)cc4)c(-c4ccccc4)c(C(=O)Nc4ccccc4)c3C(C)C)nn2)O[C@H](CO)[C@H](O)[C@@H]1O

>  <label.value>
TRUE

$$$$
>  <structure.smiles.string>
CC(=O)N[C@H]1[C@H](OCCn2cc(CNC(=O)C[C@H](O)C[C@H](O)CCn3c(-c4ccc(F)cc4)c(-c4ccccc4)c(C(=O)Nc4ccccc4)c3C(C)C)nn2)O[C@H](CO)[C@H](O)[C@@H]1O

>  <label.value>
TRUE

$$$$
>  <structure.smiles.string>
CC(=O)N[C@@H]1[C@@H](O)[C@@H](O)[C@@H](CO)O[C@H]1n1cc(COC(=O)C[C@H]2C[C@@H](CCn3c(-c4ccc(F)cc4)c(-c4ccccc4)c(C(=O)Nc4ccccc4)c3C(C)C)OC(C)(C)O2)nn1

>  <label.value>
FALSE

$$$$

Note: attention shifts to another entry.
Query: Answer whether solubility at 0.25 h of CC(=O)N[C@H]1[C@H](OCCNC(=O)C[C@H](O)C[C@H](O)CCn2c(-c3ccc(F)cc3)c(-c3ccccc3)c(C(=O)Nc3ccccc3)c2C(C)C)O[C@H](CO)[C@H](O)[C@@H]1O is greater than or equal to 200 µM.
Result: TRUE
